# tested_target: T1, EsCas13d, nuclease-dead (Eubacterium siraeum, UniProt B0MS50, R295A;H300A;R849A;H854A)
# T1 sequence: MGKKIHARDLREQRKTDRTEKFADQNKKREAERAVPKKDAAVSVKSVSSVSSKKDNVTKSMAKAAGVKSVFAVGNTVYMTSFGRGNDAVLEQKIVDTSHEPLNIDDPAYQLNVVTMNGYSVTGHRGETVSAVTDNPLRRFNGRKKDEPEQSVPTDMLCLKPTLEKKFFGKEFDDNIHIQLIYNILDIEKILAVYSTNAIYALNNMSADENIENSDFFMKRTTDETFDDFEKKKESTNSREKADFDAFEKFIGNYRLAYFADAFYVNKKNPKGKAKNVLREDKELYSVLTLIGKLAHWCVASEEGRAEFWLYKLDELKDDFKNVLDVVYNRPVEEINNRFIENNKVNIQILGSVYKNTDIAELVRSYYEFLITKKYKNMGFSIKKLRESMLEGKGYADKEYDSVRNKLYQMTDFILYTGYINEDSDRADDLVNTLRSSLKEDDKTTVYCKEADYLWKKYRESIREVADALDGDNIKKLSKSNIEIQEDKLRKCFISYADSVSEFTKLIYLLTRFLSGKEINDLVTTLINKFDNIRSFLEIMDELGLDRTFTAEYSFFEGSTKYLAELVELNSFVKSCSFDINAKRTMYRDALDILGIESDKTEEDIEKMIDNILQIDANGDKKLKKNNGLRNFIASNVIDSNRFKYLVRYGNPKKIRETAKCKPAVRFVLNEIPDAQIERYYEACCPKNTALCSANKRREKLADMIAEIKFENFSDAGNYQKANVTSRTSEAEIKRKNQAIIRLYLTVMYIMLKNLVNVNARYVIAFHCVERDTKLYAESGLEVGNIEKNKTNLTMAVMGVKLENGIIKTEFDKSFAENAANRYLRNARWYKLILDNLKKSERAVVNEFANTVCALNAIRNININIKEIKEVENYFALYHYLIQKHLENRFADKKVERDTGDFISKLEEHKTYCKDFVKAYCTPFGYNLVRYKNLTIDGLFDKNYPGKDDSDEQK
# assay_explanation: crRNA (strand 1, pre-loaded); Mg2+; 40 mM Tris-HCl pH 7.5, 150 mM NaCl, 6 mM MgCl2, 1 mM DTT, 0.1% Tween-20, 0.2 mg/ml BSA; 25 C; 10 min per concentration, then washed
# assay_conditions: tags: His6-TwinStrep-SUMO cleaved; N-terminal SNAP kept (SNAP-Surface 488); label: 3' end held by stalled T7 RNA polymerase
Measured pKd by item
To interpret pKd, take it as minus log10 of a concentration measured in moles per litre.

Recorded pKd, per entry:
binder="target 3 U7A,U22A (mixed) RNA 1: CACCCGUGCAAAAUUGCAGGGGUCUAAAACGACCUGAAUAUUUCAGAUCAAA RNA 2: GGGAAUGGAUCCACAUCUACGAAUUCGUUAUUGAUCUGAAAUAUACAGGUCUGCAGAUCGGAAGAGCACACGU" result_number=7.37
binder="target 1 MT 5'PFS UCG 3'PFS UCU (mixed) RNA 1: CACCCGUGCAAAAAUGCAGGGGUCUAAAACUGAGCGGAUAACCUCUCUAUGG RNA 2: GGGAAUGGAUCCACAUCUACGAAUUCUCGCCAUAGAGAGGUUAUCCGCUCAUCUAGAUCGGAAGAGCACACGU" result_number=7.44
binder="target 3 G4C,U8A (mixed) RNA 1: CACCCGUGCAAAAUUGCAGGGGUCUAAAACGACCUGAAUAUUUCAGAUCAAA RNA 2: GGGAAUGGAUCCACAUCUACGAAUUCGUUUUUGAUCUGAAAUAAUCACGUCUGCAGAUCGGAAGAGCACACGU" result_number=7.15
binder="target 3 insU 3' of 22,insG 3' of 7 (mixed) RNA 1: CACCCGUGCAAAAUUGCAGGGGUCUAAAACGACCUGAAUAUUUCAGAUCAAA RNA 2: GGGAAUGGAUCCACAUCUACGAAUUCGUUUUUUGAUCUGAAAUAUUGCAGGUCUGCAGAUCGGAAGAGCACACGU" result_number=7.07
binder="target 1 MT 5'PFS GAC 3'PFS CCG (mixed) RNA 1: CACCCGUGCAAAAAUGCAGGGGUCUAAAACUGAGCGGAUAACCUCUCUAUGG RNA 2: GGGAAUGGAUCCACAUCUACGAAUUCGACCCAUAGAGAGGUUAUCCGCUCACCGAGAUCGGAAGAGCACACGU" result_number=7.86
binder="target 2 MT 5'PFS GUA 3'PFS CUC (mixed) RNA 1: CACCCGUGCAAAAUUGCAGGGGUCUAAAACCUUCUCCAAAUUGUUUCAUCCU RNA 2: GGGAAUGGAUCCACAUCUACGAAUUCGUAAGGAUGAAACAAUUUGGAGAAGCUCAGAUCGGAAGAGCACACGU" result_number=7.81

We now examine a further binder.
The binder listed as target 2 MT 5'PFS GAA 3'PFS UAC (mixed) RNA 1: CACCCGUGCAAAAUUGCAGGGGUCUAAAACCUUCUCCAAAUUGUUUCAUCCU RNA 2: GGGAAUGGAUCCACAUCUACGAAUUCGAAAGGAUGAAACAAUUUGGAGAAGUACAGAUCGGAAGAGCACACGU shows pKd equal to 7.92
